I'd appreciate it if you could supply ΔTm values for the items below.
Target: Mitogen-activated protein kinase kinase kinase 5 (Homo sapiens)
Give the value in °C but do not write °C after it.

Reported ΔTm for CSc1nc(-c2ccc(F)cc2)c(-c2ccnc(NC(C)c3ccccc3)c2)[nH]1 (racemic) : what is it?
0.4

Reported ΔTm for CC(C)c1nn(-c2c(Cl)cccc2Cl)c2nc(Cc3ccc(OCCO)cc3)[nH]c(=O)c12 : what is it?
1

Reported ΔTm for Cc1[nH]c(/C=C2\C(=O)Nc3ccc(S(=O)(=O)N(C)c4cccc(Cl)c4)cc32)c(C)c1C(=O)N1CCN(C)CC1 : what is it?
-0.7

Reported ΔTm for CC(=O)O/N=C1/C(=C2/C(=O)Nc3cc(Br)ccc32)Nc2ccccc21 [6-BROMOINDIRUBIN-3'-ACETOXIME] : what is it?
-0.2

----------
measuredMetric: ΔTm (°C)
Give the value in °C but do not write °C after it.

Observed ΔTm on Serine/threonine-protein kinase OSR1 (Homo sapiens) for COc1cc2ncnc(Nc3cccc(O)c3)c2cc1OC , please.
0.2

Observed ΔTm on Serine/threonine-protein kinase OSR1 (Homo sapiens) for Cl.Cn1cc(C2=C(c3ccc4cc5n(c4c3)CCC(CN)C5)C(=O)NC2=O)c2ccccc21 (stereo not drawn) , please.
-0.1

Observed ΔTm on Serine/threonine-protein kinase OSR1 (Homo sapiens) for Cc1ccc(NC2=CC(=O)c3sc(C)nc3C2=O)cc1 , please.
-0.2

Observed ΔTm on Serine/threonine-protein kinase OSR1 (Homo sapiens) for O=C1Nc2ccc(I)cc2/C1=C\c1cc(Br)c(O)c(Br)c1 , please.
-0.4

Observed ΔTm on Serine/threonine-protein kinase OSR1 (Homo sapiens) for O=c1c(-c2ccc(O)cc2)coc2cc(O)cc(O)c12 , please.
-0.2

Observed ΔTm on Serine/threonine-protein kinase OSR1 (Homo sapiens) for CN1CCC(Nc2ncc3ncnc(Nc4ccc(F)c(Cl)c4)c3n2)CC1 [FALNIDAMOL] , please.
1.4

Observed ΔTm on Serine/threonine-protein kinase OSR1 (Homo sapiens) for CN(C)c1ccc(CC2C(=O)Nc3ccccc32)cc1 (stereo not drawn) , please.
-0.6

Observed ΔTm on Serine/threonine-protein kinase OSR1 (Homo sapiens) for O=C1Cc2c([nH]c3ccc([N+](=O)[O-])cc23)-c2ccccc2N1 , please.
1.2

Observed ΔTm on Serine/threonine-protein kinase OSR1 (Homo sapiens) for CN(C)S(=O)(=O)c1ccc2c(c1)/C(=C/c1cc3c([nH]1)CCCC3)C(=O)N2 , please.
2.2

Observed ΔTm on Serine/threonine-protein kinase OSR1 (Homo sapiens) for Nc1cc2ncnc(Nc3cccc(Br)c3)c2cc1N , please.
1

Observed ΔTm on Serine/threonine-protein kinase OSR1 (Homo sapiens) for OC[C@H]1O[C@@H](n2cnc3cc(Cl)c(Cl)cc32)[C@H](O)[C@@H]1O , please.
0.4

Observed ΔTm on Serine/threonine-protein kinase OSR1 (Homo sapiens) for Cc1cc(Nc2nc(-c3ccccc3)nc3ccccc23)n[nH]1 , please.
2.9

Observed ΔTm on Serine/threonine-protein kinase OSR1 (Homo sapiens) for CC(C)n1cnc2c(NCc3ccccc3O)nc(NCCCO)nc21 , please.
0.3

Observed ΔTm on Serine/threonine-protein kinase OSR1 (Homo sapiens) for O=c1c(O)c(-c2ccc(O)c(O)c2)oc2cc(O)cc(O)c12 [QUERCETIN] , please.
7.4

Observed ΔTm on Serine/threonine-protein kinase OSR1 (Homo sapiens) for COc1cccc(-c2cc(=O)c3ccccc3o2)c1N , please.
0.2

Observed ΔTm on Serine/threonine-protein kinase OSR1 (Homo sapiens) for O=S(=O)(NCCNC/C=C/c1ccc(Br)cc1)c1cccc2cnccc12 , please.
0.9

Observed ΔTm on Serine/threonine-protein kinase OSR1 (Homo sapiens) for Cn1cc(/C=C2/C(=O)Nc3ccc(S(N)(=O)=O)cc32)c2ccccc21 , please.
3.7

Observed ΔTm on Serine/threonine-protein kinase OSR1 (Homo sapiens) for COc1cc2ncnc(Nc3ccc(F)c(Cl)c3)c2cc1OCCCN1CCOCC1 , please.
0.2

Observed ΔTm on Serine/threonine-protein kinase OSR1 (Homo sapiens) for O=C(O)/C=C/c1cc(CO)ccc1CO , please.
0.5

Observed ΔTm on Serine/threonine-protein kinase OSR1 (Homo sapiens) for NS(=O)(=O)c1ccc(Nc2nc(OCC3CCCCC3)c3nc[nH]c3n2)cc1 , please.
1

Observed ΔTm on Serine/threonine-protein kinase OSR1 (Homo sapiens) for Brc1c(Br)c(Br)c2[nH]nnc2c1Br [TETRABROMOBENZOTRIAZOLE] , please.
2.1

Observed ΔTm on Serine/threonine-protein kinase OSR1 (Homo sapiens) for O=C1NC(=O)c2c1c1c3ccccc3n3c1c1c2c2ccccc2n1C1CCC3O1 , please.
0.7

Observed ΔTm on Serine/threonine-protein kinase OSR1 (Homo sapiens) for Nc1cccc(-c2cc3c(Oc4cccc(O)c4)ncnc3[nH]2)c1 , please.
1.7

Observed ΔTm on Serine/threonine-protein kinase OSR1 (Homo sapiens) for O=C1Nc2ccccc2/C1=C1/Nc2ccccc2/C1=N\O , please.
3.1

Observed ΔTm on Serine/threonine-protein kinase OSR1 (Homo sapiens) for Cc1cncc2cccc(S(=O)(=O)N3CCCNC[C@@H]3C)c12 , please.
0.6

Observed ΔTm on Serine/threonine-protein kinase OSR1 (Homo sapiens) for CC(C)(C)n1nc(-c2ccc(Cl)cc2)c2c(N)ncnc21 , please.
1.2

Observed ΔTm on Serine/threonine-protein kinase OSR1 (Homo sapiens) for CN(c1cccnc1)c1cc2c(Nc3ccc(F)c(Cl)c3)c(C#N)cnc2cn1 , please.
0.3

Observed ΔTm on Serine/threonine-protein kinase OSR1 (Homo sapiens) for COc1ccc(COc2ccc(Cc3cnc(N)nc3N)cc2OC)cc1 , please.
0.3

Observed ΔTm on Serine/threonine-protein kinase OSR1 (Homo sapiens) for Nc1n[nH]c2nnc(-c3c(-c4ccccc4)nn4ccccc34)cc12 , please.
0.3

Observed ΔTm on Serine/threonine-protein kinase OSR1 (Homo sapiens) for COc1ccc(CNc2nc(N(CCO)CCO)nc3c2ncn3C(C)C)cc1 , please.
0.4

Observed ΔTm on Serine/threonine-protein kinase OSR1 (Homo sapiens) for O=c1cc(N2CCOCC2)oc2c1ccc1ccccc12 , please.
0.5

Observed ΔTm on Serine/threonine-protein kinase OSR1 (Homo sapiens) for COc1cc2ncnc(Nc3cccc(Br)c3)c2cc1OC , please.
0.6

Observed ΔTm on Serine/threonine-protein kinase OSR1 (Homo sapiens) for N#C/C(=C\c1ccc(O)c(O)c1)C(=O)NCc1ccccc1 , please.
0.7

Observed ΔTm on Serine/threonine-protein kinase OSR1 (Homo sapiens) for CC(C)(C)n1nc(-c2cccc3ccccc23)c2c(N)ncnc21 , please.
1.1

Observed ΔTm on Serine/threonine-protein kinase OSR1 (Homo sapiens) for NCCNc1ncc(C(N)=O)c(Nc2cccc(C(F)(F)F)c2)n1 , please.
5.4

Observed ΔTm on Serine/threonine-protein kinase OSR1 (Homo sapiens) for Cc1cc(C=C2C(=O)C=CC2=O)cc(C)c1O , please.
0.1

Observed ΔTm on Serine/threonine-protein kinase OSR1 (Homo sapiens) for Nc1nccc(-c2c(-c3ccc(F)cc3)ncn2C2CCNCC2)n1 , please.
0.3

Observed ΔTm on Serine/threonine-protein kinase OSR1 (Homo sapiens) for NC1=N/C(=C2/CCNC(=O)c3[nH]ccc32)C(=O)N1 [DEBROMOHYMENIALDISINE] , please.
0.4

Observed ΔTm on Serine/threonine-protein kinase OSR1 (Homo sapiens) for CCOC(=O)c1c(C)[nH]c(/C=C2\C(=O)Nc3ccccc32)c1C , please.
-0.1

Observed ΔTm on Serine/threonine-protein kinase OSR1 (Homo sapiens) for Oc1cc(O)cc(/C=C/c2ccc(O)c(O)c2)c1 [PICEATANNOL] , please.
1.6

Observed ΔTm on Serine/threonine-protein kinase OSR1 (Homo sapiens) for CN(C)c1ncnc2nc[nH]c12 [DIMETHYLADENINE] , please.
1.1

Observed ΔTm on Serine/threonine-protein kinase OSR1 (Homo sapiens) for C[C@@H]1C[C@H]2O[C@@H]2/C=C\C=C\C(=O)Cc2c(Cl)c(O)cc(O)c2C(=O)O1 [RADICICOL] , please.
1.4

Observed ΔTm on Serine/threonine-protein kinase OSR1 (Homo sapiens) for COC1=C2C[C@@H](C)C[C@H](OC)[C@H](O)[C@@H](C)/C=C(\C)[C@H](OC(N)=O)[C@@H](OC)/C=C\C=C(/C)C(=O)NC(=CC1=O)C2=O , please.
0.8
